# Measured target: Homeobox protein Hox-A13 (Mus musculus) (UniProt Q62424)
# Sequence (Q62424 whole entry, looked up): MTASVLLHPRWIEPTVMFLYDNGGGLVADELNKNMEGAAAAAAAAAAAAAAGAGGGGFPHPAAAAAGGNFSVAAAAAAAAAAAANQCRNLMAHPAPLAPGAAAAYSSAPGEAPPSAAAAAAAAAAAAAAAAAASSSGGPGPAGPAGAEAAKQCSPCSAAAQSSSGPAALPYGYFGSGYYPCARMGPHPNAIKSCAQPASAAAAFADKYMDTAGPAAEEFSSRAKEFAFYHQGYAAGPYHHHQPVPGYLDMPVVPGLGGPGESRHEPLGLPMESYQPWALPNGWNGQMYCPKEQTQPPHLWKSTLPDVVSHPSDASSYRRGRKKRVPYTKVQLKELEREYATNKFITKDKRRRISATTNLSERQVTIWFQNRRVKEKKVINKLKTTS
# Protocol details: inhibitors of HoxA13-DNA binding, primary screen, biochemical, fluorescence polarization, labeled oligonucleotide (AID 1185)
# Experimental parameters: 15 min, higher = more signal, called active from +8 up or from −8 down
Recorded z-score values for a group of molecules are listed next.

{"Molecule": "CCCNC(=O)OC[C@H]1O[C@H](CCON=C[C@@H](NS(=O)(=O)c2ccc(C)cc2)[C@H](C)C=CCC(=O)OC)C=C[C@@H]1Oc1ccc(OC)cc1", "z-score": -4.48}
{"Molecule": "C[C@@H]1CC[C@H]2C(=O)O[C@@H](COc3ccc(C(C)(C)C)cc3)CN2[C@H]1c1ccc(Br)cc1", "z-score": 0.503}
{"Molecule": "C#CCCCON=C1C[C@@H](O)[C@@H](O)[C@@H]2[C@@H]3C(=O)N(C[C@@H]4CCCO4)C(=O)[C@@H]3CC[C@H]12", "z-score": -1.28}
{"Molecule": "CC(=O)OC[C@H]1O[C@@H](ON=C2[C@H]3CCn4c(=O)n(-c5ccccc5)c(=O)n4[C@H]3[C@H](O)[C@@H]3O[C@H]23)[C@H](OC(C)=O)[C@@H](OC(C)=O)[C@@H]1OC(C)=O", "z-score": -4.07}
{"Molecule": "CCCCOC(OCCCC)C(O)CSc1ccc2ccccc2c1 (stereo not drawn)", "z-score": -3.85}
{"Molecule": "CC(C)=NOC(C)CN1CCCCc2nc(C)c(C)cc21 (stereo not drawn)", "z-score": -1.28}
{"Molecule": "O=C1CCCC=C1C(O)COCc1ccccc1 (stereo not drawn)", "z-score": -3.62}
{"Molecule": "COc1ccc(OC[C@@H](CO)OC)cc1", "z-score": -0.0261}

====

# Measured target: Neurogenic locus notch homolog protein 2 (Homo sapiens) (UniProt Q04721)
# Sequence (Q04721 whole entry, looked up): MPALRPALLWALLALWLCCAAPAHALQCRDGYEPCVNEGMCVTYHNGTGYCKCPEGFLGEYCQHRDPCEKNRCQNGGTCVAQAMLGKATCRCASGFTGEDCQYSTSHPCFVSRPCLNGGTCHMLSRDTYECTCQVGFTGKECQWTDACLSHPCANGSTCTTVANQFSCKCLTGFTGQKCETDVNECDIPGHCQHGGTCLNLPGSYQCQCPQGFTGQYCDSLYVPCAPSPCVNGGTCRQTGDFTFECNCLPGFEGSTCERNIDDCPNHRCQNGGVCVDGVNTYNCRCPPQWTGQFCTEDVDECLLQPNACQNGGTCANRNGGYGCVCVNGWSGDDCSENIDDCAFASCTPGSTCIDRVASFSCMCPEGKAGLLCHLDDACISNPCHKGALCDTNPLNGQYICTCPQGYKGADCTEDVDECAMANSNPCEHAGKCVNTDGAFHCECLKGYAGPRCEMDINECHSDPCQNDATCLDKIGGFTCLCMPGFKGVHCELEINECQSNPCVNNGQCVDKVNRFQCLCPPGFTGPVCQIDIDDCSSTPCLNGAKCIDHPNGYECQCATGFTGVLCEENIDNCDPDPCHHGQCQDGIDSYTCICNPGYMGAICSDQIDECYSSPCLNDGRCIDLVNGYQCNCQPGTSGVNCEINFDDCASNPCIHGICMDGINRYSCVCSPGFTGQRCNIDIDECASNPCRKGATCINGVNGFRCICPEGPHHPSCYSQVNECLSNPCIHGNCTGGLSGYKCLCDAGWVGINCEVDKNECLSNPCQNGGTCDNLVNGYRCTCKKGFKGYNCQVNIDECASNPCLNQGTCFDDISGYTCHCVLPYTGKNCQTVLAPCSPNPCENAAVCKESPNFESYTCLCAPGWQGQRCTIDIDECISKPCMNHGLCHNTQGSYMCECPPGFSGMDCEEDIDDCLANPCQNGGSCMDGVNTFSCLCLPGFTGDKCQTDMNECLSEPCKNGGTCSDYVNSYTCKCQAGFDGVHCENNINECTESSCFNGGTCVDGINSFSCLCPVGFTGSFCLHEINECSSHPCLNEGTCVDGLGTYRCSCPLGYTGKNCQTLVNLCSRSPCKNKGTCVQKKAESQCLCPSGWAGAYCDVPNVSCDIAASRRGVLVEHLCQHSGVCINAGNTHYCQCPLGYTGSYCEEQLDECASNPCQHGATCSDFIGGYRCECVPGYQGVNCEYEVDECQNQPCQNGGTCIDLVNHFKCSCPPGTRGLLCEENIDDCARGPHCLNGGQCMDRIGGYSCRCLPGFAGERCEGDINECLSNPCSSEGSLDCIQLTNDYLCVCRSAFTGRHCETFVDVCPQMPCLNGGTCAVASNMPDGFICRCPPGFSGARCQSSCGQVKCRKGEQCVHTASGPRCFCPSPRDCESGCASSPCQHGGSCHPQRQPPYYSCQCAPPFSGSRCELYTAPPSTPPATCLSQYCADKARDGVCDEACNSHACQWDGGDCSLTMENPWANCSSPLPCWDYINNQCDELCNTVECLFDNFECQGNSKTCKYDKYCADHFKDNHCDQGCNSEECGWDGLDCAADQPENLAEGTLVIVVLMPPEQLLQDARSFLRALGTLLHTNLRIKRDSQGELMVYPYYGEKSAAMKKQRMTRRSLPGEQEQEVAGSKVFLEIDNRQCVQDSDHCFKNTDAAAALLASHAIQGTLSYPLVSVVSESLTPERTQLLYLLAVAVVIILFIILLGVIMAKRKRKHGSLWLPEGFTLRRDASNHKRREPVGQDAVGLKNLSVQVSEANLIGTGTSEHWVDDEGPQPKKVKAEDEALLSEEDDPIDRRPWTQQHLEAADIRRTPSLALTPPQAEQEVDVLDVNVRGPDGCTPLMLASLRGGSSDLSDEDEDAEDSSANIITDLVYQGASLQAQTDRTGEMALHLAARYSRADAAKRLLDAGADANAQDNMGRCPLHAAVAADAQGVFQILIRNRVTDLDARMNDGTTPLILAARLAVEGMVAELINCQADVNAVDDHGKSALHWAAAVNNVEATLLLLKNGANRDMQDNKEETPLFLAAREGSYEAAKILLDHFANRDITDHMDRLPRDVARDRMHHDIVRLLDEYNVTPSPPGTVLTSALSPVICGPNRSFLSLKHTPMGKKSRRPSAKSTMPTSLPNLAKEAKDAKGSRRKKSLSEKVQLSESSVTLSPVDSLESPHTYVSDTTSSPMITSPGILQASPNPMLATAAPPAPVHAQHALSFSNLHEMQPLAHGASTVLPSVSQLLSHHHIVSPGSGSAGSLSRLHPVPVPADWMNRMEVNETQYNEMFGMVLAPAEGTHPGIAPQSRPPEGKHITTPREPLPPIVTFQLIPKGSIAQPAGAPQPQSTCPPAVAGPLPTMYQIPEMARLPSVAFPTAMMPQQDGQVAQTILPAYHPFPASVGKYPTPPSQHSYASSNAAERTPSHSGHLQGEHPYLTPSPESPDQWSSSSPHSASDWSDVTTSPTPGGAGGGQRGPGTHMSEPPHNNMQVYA
# Protocol details: Notch2 binders on small-molecule microarrays, primary screen, biochemical, small-molecule microarray, 635 nm fluorescence, stem cell growth factors (AID 1073)
# Experimental parameters: Notch2 binding, higher = more signal

{"Compound": "CCOC(=O)[C@H](CC(C)C)NC(=O)CCC1CC(OC(=O)NCc2ccc3c(c2)OCO3)CC2(CCCC(COC(=O)NCc3ccccc3)O2)O1 (some centres undefined)", "composite z-score": 0.375}
{"Compound": "CCN(CC)CC(O)CN1CCCCc2nc(C)c(C)cc21 (centres undefined)", "composite z-score": 0.635}
{"Compound": "C=C(C)C(=O)OC[C@H]1CN2[C@@H](CC[C@@H](C)[C@@H]2c2ccc(Br)cc2)C(=O)O1", "composite z-score": -0.283}
{"Compound": "O=C(NN=C1C[C@@H](O)[C@@H](O)[C@@H]2[C@@H]3C(=O)N(Cc4ccccc4)C(=O)[C@@H]3CC[C@H]12)OCc1ccccc1", "composite z-score": 0.226}
{"Compound": "COC(=O)[C@H](C)NC(=O)CCC1CC(OC(=O)NCc2ccc3c(c2)OCO3)CC2(CCCC(COC(=O)NCCC(C)C)O2)O1 (some centres undefined)", "composite z-score": 0.821}
{"Compound": "CCOC(=O)[C@H](Cc1ccccc1)NC(=O)CCC1CC(OC(=O)NCc2cccc3ccccc23)CC2(CCCC(COC(=O)NCCOc3ccccc3)O2)O1 (some centres undefined)", "composite z-score": 0.863}
{"Compound": "CC(C)=NOC(C)CN1CCCCc2nc(C)c(C)cc21 (centres undefined)", "composite z-score": -0.134}
{"Compound": "O=C1[C@H]2[C@H]3[C@H](O)[C@H](O)CC(=NO[C@@H]4O[C@H](CO)[C@@H](O)[C@H](O)[C@H]4O)[C@@H]3CC[C@H]2C(=O)N1C[C@@H]1CCCO1", "composite z-score": 1.06}
{"Compound": "CON(C)C(=O)c1nnc2c(n1)[nH]c1ccccc12", "composite z-score": 0.448}
{"Compound": "COC(=O)[C@@H]1CC[C@H](C)[C@@H](c2ccc(C)cc2)N1C(=O)c1ccc(C=NO[C@@H](C)c2cc(-c3c(C)cc(C)cc3C)no2)cc1", "composite z-score": 0.239}
{"Compound": "CCc1cc2c(nc1CC)CCN(CCC(C)=NOCC[C@@H]1C=C[C@H](OC(C)=O)[C@@H](COC(C)=O)O1)C2", "composite z-score": -0.0544}
{"Compound": "Cc1ccc(S(=O)(=O)N[C@@H]2COC(=O)CC=C[C@@H](C)[C@H](NS(=O)(=O)c3ccc(C)cc3)COC(=O)[C@H](C)NC(=O)CC=C[C@H]2C)cc1", "composite z-score": -1.12}
{"Compound": "COc1ccc(O[C@H]2C=C[C@@H](c3ccccc3)O[C@@H]2CON=C2c3cc(OC)ccc3O[C@H](c3cccc(OC)c3)[C@H]2O)cc1", "composite z-score": 1.38}
{"Compound": "CCOC(=O)[C@H](Cc1ccccc1)NC(=O)CCC1CC(OC(=O)NCCc2ccc(F)cc2)CC2(CCCC(COC(=O)NCc3cccc(C(F)(F)F)c3)O2)O1 (some centres undefined)", "composite z-score": 1.49}
{"Compound": "C=CCOCC1CN2[C@@H](CC[C@@H](C)[C@@H]2c2ccc(Br)cc2)C(=O)O1 (some centres undefined)", "composite z-score": -0.619}
{"Compound": "COc1ccc(OC[C@H]2CN3[C@@H](CC[C@@H](C)[C@@H]3c3ccc(Br)cc3)C(=O)O2)cc1", "composite z-score": -0.142}
{"Compound": "CC(=O)OC[C@H]1O[C@@H](ON=C2[C@H]3CCn4c(=O)n(-c5ccccc5)c(=O)n4[C@H]3[C@H](O)[C@@H]3O[C@H]23)[C@H](OC(C)=O)[C@@H](OC(C)=O)[C@@H]1OC(C)=O", "composite z-score": 0.396}
{"Compound": "CCOC(=O)[C@H](CC(C)C)NC(=O)CCC1CC(OC(=O)NCCc2ccc(F)cc2)CC2(CCCC(COC(=O)NCCCN3CCCC3=O)O2)O1 (some centres undefined)", "composite z-score": 0.951}
{"Compound": "CCN1C(C)=C(C(=O)OC)[C@@H](c2ccccc2)N2C(=O)[C@](O)(C(=O)OC)CC(C(C)=O)=C12", "composite z-score": 0.505}
{"Compound": "CC(=O)OC[C@H]1O[C@H](CC=NOC(C)CN2CCCc3nc(C)c(C)cc32)C=C[C@@H]1OC(C)=O (some centres undefined)", "composite z-score": 0.804}
{"Compound": "CCN1C(=O)[C@H]2[C@H]3[C@H](O)[C@H](O)CC(=NNC(=O)OCc4ccccc4)[C@@H]3CC[C@H]2C1=O", "composite z-score": -0.311}
{"Compound": "CCN1C(=O)[C@H]2[C@H]3[C@H](O)[C@H](O)CC(=NO[C@@H]4O[C@H](CO)[C@@H](O)[C@H](O)[C@H]4O)[C@H]3CC[C@H]2C1=O", "composite z-score": 1}
{"Compound": "CO[C@@H]1C=CCC(=O)N[C@@H](C)C(=O)OC[C@@H](OC)[C@H](C)C=CCC(=O)OC[C@H]1C", "composite z-score": -0.88}
{"Compound": "CCOC(=O)[C@H](CC(C)C)NC(=O)CCC1CC(OC(=O)NCc2ccc3c(c2)OCO3)CC2(CCCC(COC(=O)NCCOC)O2)O1 (some centres undefined)", "composite z-score": 0.805}
{"Compound": "COC(=O)[C@H](C)NC(=O)CCC1CC(OC(=O)NCc2cccc3ccccc23)CC2(CCCC(COC(=O)NCCCN3CCCC3=O)O2)O1 (some centres undefined)", "composite z-score": 1.43}
{"Compound": "CC(=O)OC[C@H]1O[C@H](CC=NO[C@H](C)c2cn([C@@H]3COC[C@H]3O)nn2)C=C[C@@H]1OC(C)=O", "composite z-score": 0.277}
{"Compound": "CC(C)(C)N1C(=O)[C@H]2[C@H]3[C@H](O)[C@H](O)CC(=NOC[C@@H](O)COCc4ccco4)[C@H]3CC[C@H]2C1=O", "composite z-score": 0.0009}
{"Compound": "COC(=O)[C@H](C)NC(=O)CC=C[C@@H](C)[C@@H]1C=C[C@H](O)[C@@H](CO)O1", "composite z-score": 0.0931}
{"Compound": "COC(=O)CC=C[C@@H](C)[C@@H](C=NOC[C@@H](C)[C@H](OCc1ccccc1)C(C)C)OC", "composite z-score": 0.0445}
